test system: Plasmodium berghei; test: Luciferase/luciferin-expressing antifolate-resistant parasites were used to infect a culture of HepG2 cells that were pre-incubated with compounds. Infected hepatocytes emit light due to the luciferase reaction. Assay results are presented as the percent inhibition of light emission compared to control. […]; format: functional; settings: sporozoite, PBLUC_HILL_SLOPE 1.71, PBLUC_R_SQUARED 0.31, read-out: LUCIFERASE INFECTION ASSAY - IC50
readout_type: IC50 (µM)
Write the number in µM without appending the unit.

# input Consider the compound shown here: `Cc1sc2nc(-c3cccnc3)nc(NCCc3ccc(S(N)(=O)=O)cc3)c2c1C` What is its recorded IC50?
# output 7.09
